Test: qHTS Assay for Lipid Storage Modulators (AID 1519)
Settings: Drosophila S3 cells, BODIPY lipid droplet/cell ratio, laser cytometry; measured here: lipid channel max response; cells loaded with oleic acid
Results filed as inconclusive are left out.
Catalogue of max response values
Give the value in % but do not write % after it.

Past entries and their recorded results:
molecule	max response / %
CCCN1CCC[C@@H]2Cc3n[nH]cc3C[C@H]21	14.1
CC(N)[C@H](O)c1ccccc1 (stereo not given in full)	19.5
CN1C[C@H](C(=O)N[C@@]2(C)O[C@@]3(O)C4CCCN4C(=O)C(Cc4ccccc4)N3C2=O)C[C@H]2c3cccc4[nH]cc(c34)C[C@H]21 (stereo not given in full)	25.1
CC(=O)[C@@H]1CC[C@H]2[C@H]3CC[C@H]4C[C@@H](O)CC[C@]4(C)[C@@H]3C(=O)C[C@@]12C	-15.2
c1ccc(N2CCCC3(CCNCC3)C2)nc1	8.95

Request the reported max response associated with `CC[C@H]1C(=O)OC[C@H]1Cc1cncn1C`
-6.45

Request the reported max response associated with CN[C@@H](C)[C@H]1CC[C@@H](N)[C@@H](O[C@@H]2[C@@H](O)[C@@H](O[C@H]3OC[C@@](C)(O)[C@@H](NC)[C@@H]3O)[C@H](N)C[C@@H]2N)O1 (tested in a mixture with another compound)
-11.6

Request the reported max response associated with C[C@]12CC[C@H](O)CC1=CCC1C2CC[C@]2(C)C(=O)CC[C@@H]12 (stereo not given in full)
-14.9

Request the reported max response associated with `CC(=O)OCC(=O)[C@@H]1CC[C@H]2[C@H]3CC[C@H]4C[C@@H](O)CC[C@]4(C)[C@@H]3C(=O)C[C@@]12C`
-26.2

Request the reported max response associated with `COc1ccccc1CN1CC[C@@]2(CCCN(C(=O)Oc3ccccc3)C2)C1`
13.6

---

System: NAD(P)H diaphorase (Clostridium kluyveri)
Test: Diaphorse counterscreen qHTS: Assay Interference Panel against the NCATS CANVASS Library (AID 1347362)
Conditions: Diaphorase enzyme, resazurin to resorufin fluorescence; series mostly up to 57.5 µM
Records with an inconclusive call do not appear. Active and inactive are the calls of the source. The call rests on the fitted dose curve; in most records, active means well fitted inhibition curve with a large enough effect; inconclusive means small, poorly fitted or top-dose-only effect; inactive means flat fitted curve, though single readings scatter.
Answer with one of the outcomes true (1) for active, false (0) for inactive

Example entries and their recorded answers appear below.
molecule	assigned-category
COC1=C(C2=C(OC)C(=O)c3cc4c(c(O)c3C2=O)C(=O)O[C@H](C)C4)C(=O)c2c(cc3c(c2O)C(=O)O[C@H](C)C3)C1=O	true (1)
C/C=C(\C)C(=O)O[C@@H]1[C@@H](O)[C@@H]2O[C@H]3[C@H](O[C@@H](CCCCC)CCCCCCC(=O)CCC(=O)OC[C@@H](O2)[C@H]1OC(=O)/C=C/c1ccccc1)O[C@H](C)[C@H](OC(C)=O)[C@@H]3O	false (0)
C1=C2CCCN[C@H]2C2CC1[C@H]1CCCCN1C2 (some centres undefined)	false (0)

// return assay outcome for C[C@]12CC(O)C3[C@@H](CCC4C[C@@H](O)CC[C@@]43CO)[C@@]1(O)CC[C@@H]2C1=CC(=O)OC1 (some centres undefined)
false (0)

// return assay outcome for CCCC[C@@H]1CC[C@H]2CCCC(CCCO)N12 (some centres undefined)
false (0)

// return assay outcome for `CC[C@@H]1CN2CCc3c([nH]c4cccc(OC)c34)[C@@H]2C[C@@H]1/C(=C\OC)C(=O)OC`
false (0)

// return assay outcome for `C/C=C1/CN2CC[C@]34C(=C(C(=O)OC)[C@H]1C[C@H]23)Nc1ccccc14`
false (0)
